# protocol: Quantitative High-Throughput drug screen in 47 multiple myeloma cell lines against the NCATS MIPE library collection: OCIMY7_PLB cell viability assay (AID 1918987); also: nearly all actives have a fitted effect of over 65% in size
# condition context: OCI-MY7 myeloma viability, CellTiter-Glo ATP, 48 h
Results filed as inconclusive are left out. Active and inactive are the calls of the source. Calls follow the shape of the dose curve; as a rule, active = well fitted cell-killing curve with a large enough effect; inconclusive = small, poorly fitted or top-dose-only effect, or effect the other way; inactive = no such curve, though single readings can be large or run the other way.
Parameter call: string, one of active, inactive

Nc1[nH]nc2nnc(-c3c(-c4ccccc4)nn4ccccc34)cc12 | active
COc1cc2ncnc(Nc3cc(Br)c(O)c(Br)c3)c2cc1OC | active
CNc1nc(-c2ccc3c(N)n[nH]c3c2)cc(N2C[C@@H](C(=O)NC3CCCCC3)CC[C@@H]2C)n1 | active
OC(c1cc(C(F)(F)F)nc2c(C(F)(F)F)cccc12)C1CCCCN1 (stereo not drawn) | active

For this compound, state the assay outcome: CCOC(=O)[C@H](CCc1ccccc1)N[C@@H](C)C(=O)N1CCCC1C(=O)O (stereo partly drawn)
inactive

Assay result, entry COc1cc(CNC(=O)CCCCC=CC(C)C)ccc1O — outcome?
active

For COC(=O)[C@H](c1ccccc1Cl)N1CCc2sccc2C1 , what call appears in the results of this test?
active

Dear all, I need the recorded test outcome for CCC(=O)N1CCN(c2ccc(-n3c(=O)ccc4cnc5ccc(-c6cnc7ccccc7c6)cc5c43)cc2C(F)(F)F)CC1 , thank you.
active

Dear colleague, could you share the recorded outcome for C[C@H](CCC(=O)O)[C@H]1CC[C@H]2[C@H]3[C@@H](CC[C@]12C)[C@@]1(C)CC[C@@H](O)C[C@H]1C[C@@H]3O when you have a moment?
inactive

Please state the recorded outcome for this compound: OC[C@H]1O[C@@H](O[C@H]2[C@@H](O)[C@@](O)(CO)O[C@@H]2CO)[C@H](O)[C@@H](O)[C@@H]1O
inactive

###

# protocol: Quantitative High-Throughput drug screen in 47 multiple myeloma cell lines against the NCATS MIPE library collection: KMS12PE_JCRB cell viability assay (AID 1918972); also: nearly all actives have a fitted effect of over 30% in size
# condition context: KMS12PE myeloma viability, CellTiter-Glo ATP, 48 h; series mostly up to 45.8 µM
Records with an inconclusive call do not appear. Calls of active or inactive are those of the source. Calls come from the whole dose curve; as a rule, active = well fitted cell-killing curve with a large enough effect; inconclusive = small, poorly fitted or top-dose-only effect, or effect the other way; inactive = no such curve, though single readings can be large or run the other way.
Give your call using only these classes: Y = active, N = inactive

O=C(Nc1cccc(C(F)(F)F)c1)Nc1cc(S(=O)(=O)NC2CC2)ccc1-c1ccsc1 | N
CNC(=O)c1cc(Oc2ccc(NC(=O)Nc3ccc(Cl)c(C(F)(F)F)c3)c(F)c2)ccn1 | Y
CNC1CCC(N(Cc2cccc(-c3ccncc3)c2)C(=O)c2sc3ccccc3c2Cl)CC1 (centres undefined) | Y
CC(C)CNc1ccnc(NCc2csc(-c3ccccc3)n2)n1 | Y
C=C1[C@H](n2cnc3c(=O)[nH]c(N)nc32)C[C@H](O)[C@H]1CO | Y

What outcome does the record of this test show for O[C@@H](COc1cccc2ncccc12)CN1CCN(C2c3ccccc3[C@@H]3[C@H](c4ccccc42)C3(F)F)CC1 (some centres undefined) ?
N

How did this test come out for COc1ccc2c(c1)c(C1=C(c3c[nH]c4ccccc34)C(=O)NC1=O)cn2CCCN(C)C ?
Y

Check the results log: what was the call for OC[C@H]1O[C@@H](O[C@H]2[C@@H](O)[C@@](O)(CO)O[C@@H]2CO)[C@H](O)[C@@H](O)[C@@H]1O ?
N

###

# System: SKOV3
# protocol: Primary qHTS to identify gynecologic anti-cancer compounds using libraries of approved drugs and bioactive compounds (AID 1345084); also: nearly all actives have a fitted effect of over 55% in size
# condition context: Gynecologic cancer cell panel viability, ATPlite luminescence, 48 h; series mostly up to 57.5 µM
Results filed as inconclusive are left out. Calls of active or inactive are those of the source. Calls follow the shape of the dose curve; as a rule, active = well fitted cell-killing curve with a large enough effect; inconclusive = small, poorly fitted or top-dose-only effect, or effect the other way; inactive = flat fitted curve, though single readings scatter.
Give one outcome, nothing more. List: active, inactive

Below are worked cases with known answers.
CCCCC(F)(F)[C@@]1(O)CC[C@H]2[C@H](CC(=O)[C@@H]2CCCCCCC(=O)O)O1 | inactive
O=C(CCCN1CCN(c2ccc(F)cc2)CC1)NC1c2ccccc2CSc2ccccc21 (stereo not given) | inactive
CNC1CCC(N(Cc2cccc(-c3ccncc3)c2)C(=O)c2sc3ccccc3c2Cl)CC1 (stereo not given) | active
O=C1NC(=O)C(c2cnc3ccccn23)=C1c1cn2c3c(cccc13)CN(C(=O)N1CCOCC1)CC2 | active
COc1ccc(-c2nc3ccc(C4=NNC(=O)CC4C)cc3[nH]2)cc1 (stereo not given) | active
CN(C)CCOc1cc(-c2cn[nH]c2)ccc1NC(=O)C1COc2ccccc2O1 (stereo not given) | inactive
O=S(=O)(O)c1ccc2cc(N=Nc3cc(S(=O)(=O)O)c4cccnc4c3O)ccc2c1 | inactive
CC(C)CNc1ccnc(NCc2csc(-c3ccccc3)n2)n1 | active

Called result for COc1ccc(CCC(=O)Nc2nc3ccc(Cl)cc3s2)cc1OC
inactive

Given Cc1ccccc1C(C(=O)NC1CCCCC1)N(C(=O)CNc1ccc(C#N)cc1)c1cccc(F)c1 (stereo not given) , state the outcome it received in this test.
inactive
